compounds and their reported inhibition at 0.1 µM
- testedTarget: human recombinant adrenergic α2A receptor (Homo sapiens, UniProt P08913)
- Construct: expressed in transfected cells; host or cells: insect Sf9 cells
- Sequence (P08913 whole entry): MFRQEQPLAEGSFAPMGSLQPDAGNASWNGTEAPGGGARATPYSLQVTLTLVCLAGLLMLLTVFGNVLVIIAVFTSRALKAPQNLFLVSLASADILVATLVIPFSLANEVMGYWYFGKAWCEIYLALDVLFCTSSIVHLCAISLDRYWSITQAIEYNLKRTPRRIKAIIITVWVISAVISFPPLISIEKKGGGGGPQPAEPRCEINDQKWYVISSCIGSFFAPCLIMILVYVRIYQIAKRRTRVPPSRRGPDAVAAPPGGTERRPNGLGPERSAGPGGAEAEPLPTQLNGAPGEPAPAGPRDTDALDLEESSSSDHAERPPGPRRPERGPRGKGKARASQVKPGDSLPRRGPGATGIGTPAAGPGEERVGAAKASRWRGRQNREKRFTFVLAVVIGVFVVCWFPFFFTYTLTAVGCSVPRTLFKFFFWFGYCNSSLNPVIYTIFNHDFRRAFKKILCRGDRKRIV
- measurementNotes: Radioligand binding, adrenergic α2A ([3H]MK-912)
- testParameters: 0.1 μM compound; read-out: Percentage inhibition of ligand binding, Adrenergic α2A
outcomeMeasure: inhibition at 0.1 µM

compound=C/C(=C/n1c2c(c3cc(C)ccc31)CCN(C)CC2)c1cccc(F)c1 testresult=98%
compound="CN1CCc2c(n(CC(O)c3ccccc3F)c3ccc(Cl)cc23)C1 (centres unmarked)" testresult=26%
compound=C/C(=C\n1c2c(c3cc(C)ccc31)CN(C)CC2)c1ccc2c(ccn2C)c1 testresult=90%
compound=C/C(=C/n1c2c(c3cc(Cl)ccc31)CCN(C)CC2)c1cccc(F)c1 testresult=96%
compound="CN1CCc2c(c3cccnc3n2CC(O)c2ccncc2)C1 (centres unmarked)" testresult=1%

====

- testedTarget: human recombinant adrenergic α2B receptor (Homo sapiens, UniProt P18089)
- Construct: expressed in transfected cells; host or cells: CHO-K1
- Sequence (P18089 whole entry): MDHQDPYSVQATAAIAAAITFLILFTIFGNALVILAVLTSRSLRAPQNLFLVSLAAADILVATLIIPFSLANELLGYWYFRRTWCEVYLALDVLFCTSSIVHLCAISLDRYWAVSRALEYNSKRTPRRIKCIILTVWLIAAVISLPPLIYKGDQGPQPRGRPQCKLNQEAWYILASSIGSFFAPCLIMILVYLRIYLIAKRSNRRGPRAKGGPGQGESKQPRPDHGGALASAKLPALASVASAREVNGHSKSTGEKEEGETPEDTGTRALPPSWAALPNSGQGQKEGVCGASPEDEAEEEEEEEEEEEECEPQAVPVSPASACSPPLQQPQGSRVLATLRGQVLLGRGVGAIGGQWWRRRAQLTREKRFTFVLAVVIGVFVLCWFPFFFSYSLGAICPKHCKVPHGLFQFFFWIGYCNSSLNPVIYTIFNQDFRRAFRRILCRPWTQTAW
- measurementNotes: Radioligand binding, adrenergic α2B ([3H]Rauwolscine)
- testParameters: read-out: Percentage inhibition of ligand binding, Adrenergic α2B (0.1 μM), compound at 0.1 μM; [3H]Rauwolscine; repeat datapoints each shown
Tag: criterion met if measured inhibition at 0.1 µM is not below 60%, criterion not met if it is.

compound="Cc1cnc2c(c1)c1c(n2CCc2ccc(C(F)(F)F)nc2)CCN(C)C1 [II-119]" answerlabel="criterion not met"
compound="Cc1cnc2c(c1)c1c(n2CCc2ccc(C(F)(F)F)nc2)CC2CCCN2C1 (stereo not drawn) [II-239]" answerlabel="criterion not met"
compound="C/C(=C/n1c2c(c3cc(C)ccc31)CCN(C)CC2)c1ccccc1F [compound 230]" answerlabel="criterion met"
compound="C/C(=C\\n1c2c(c3cc(Cl)ccc31)C1CCC(C2)N1C)c1cccnc1 (stereo not drawn) [compound 97]" answerlabel="criterion met"
compound="Cc1ccc2c(c1)c1c(n2CC(O)c2ccncc2C)CCN(C)C1 (single isomer, unassigned) [133b]" answerlabel="criterion met"
compound="CN1CCc2c(c3cc(C(F)(F)F)ccc3n2CCc2ccccc2)C1 [compound 209]" answerlabel="criterion met"
compound="C/C(=C\\n1c2c(c3cc(C)ccc31)CCN(C)CC2)c1ccc(Cl)cc1Cl [compound 227]" answerlabel="criterion met"
compound="C/C(=C\\n1c2c(c3cc(C)cnc31)CN(C)CC2)c1ccncc1 [compound 124]" answerlabel="criterion met"
compound="CCN1CCc2c(c3cc(C)ccc3n2CC(O)c2ccc(C)cc2)C1 (stereo not drawn) [compound 203]" answerlabel="criterion not met"

====

- testedTarget: human recombinant adrenergic α1D receptor (Homo sapiens)
- Construct: expressed in transfected cells; host or cells: HEK-293
- Sequence (P25100 whole entry): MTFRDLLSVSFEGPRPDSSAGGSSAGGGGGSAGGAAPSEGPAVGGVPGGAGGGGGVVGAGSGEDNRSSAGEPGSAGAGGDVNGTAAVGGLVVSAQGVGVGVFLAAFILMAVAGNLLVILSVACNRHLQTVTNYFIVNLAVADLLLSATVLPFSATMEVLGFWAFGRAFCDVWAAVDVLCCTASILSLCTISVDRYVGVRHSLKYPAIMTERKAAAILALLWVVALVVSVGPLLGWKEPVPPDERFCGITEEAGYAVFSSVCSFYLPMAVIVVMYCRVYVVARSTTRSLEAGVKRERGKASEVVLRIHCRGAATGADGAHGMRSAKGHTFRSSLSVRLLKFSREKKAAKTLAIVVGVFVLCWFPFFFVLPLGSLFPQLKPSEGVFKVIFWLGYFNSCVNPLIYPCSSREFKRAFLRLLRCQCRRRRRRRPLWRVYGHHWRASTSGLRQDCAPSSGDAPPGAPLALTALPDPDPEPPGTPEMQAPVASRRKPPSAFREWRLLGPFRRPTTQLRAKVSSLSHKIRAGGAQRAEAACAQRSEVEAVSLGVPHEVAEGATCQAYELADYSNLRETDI
- measurementNotes: Radioligand binding, adrenergic α1D ([3H]Prazosin)
- testParameters: 0.1 μM compound; read-out: Percentage inhibition of ligand binding, Adrenergic α1D
outcomeMeasure: inhibition at 0.1 µM

chemicalstring=Cc1cc(-c2sccc2C)c2c(c1)c1c(n2CCc2ccc(C)nc2)CCN(C)C1 testresult=4%
chemicalstring=Cc1ccc2c(c1)c1c(n2CCc2csc3ccccc23)CCN(C)C1 testresult=39%
chemicalstring=C/C(=C\n1c2c(c3cc(Cl)ccc31)CCN(C)CC2)c1cccc(F)c1 testresult=31%
chemicalstring=Cc1ccc2c(c1)c1c(n2CCc2cnc3ccccc3c2)CCN(C)C1 testresult=56%
chemicalstring=C/C(=C/n1c2c(c3cc(Cl)ccc31)CCN(C)CC2)c1cccc(F)c1 testresult=81%
chemicalstring=Cc1ccc(CCn2c3c(c4c(C)ccc(C)c42)CN(C)CC3)cn1 testresult=-9%
chemicalstring=C/C(=C\n1c2c(c3cc(C)ccc31)CN(C)CC2)c1cccnc1 testresult=22%
chemicalstring=C/C(=C/n1c2c(c3cc(C)ccc31)CN(C)CC2)c1cnc(N(C)C)nc1 testresult=93%
chemicalstring=C/C(=C/n1c2c(c3cc(C)ccc31)CCN(C)CC2)c1cccc(F)c1 testresult=82%

====

- testedTarget: rat adrenergic α1B receptor (Rattus norvegicus)
- Construct: rat adrenergic α1B receptor obtained from Wistar Rat liver; from tissue; host or cells: Wistar rat liver
- measurementNotes: Radioligand binding, adrenergic α1B ([3H]Prazosin)
- testParameters: compound at 0.1 μM; [3H]Prazosin; repeat datapoints each shown; 0.1 µM
outcomeMeasure: Percentage inhibition of ligand binding, Adrenergic α1B (0.1 μM)

compound=Cc1ccc2c(c1)c1c(n2C2=C(c3ccc4c(ccn4C)c3)CCC2)CCN(C)C1 testresult=20%
compound="Cc1ccc2c(c1)c1c(n2CC(N=[N+]=[N-])c2ccc(F)cc2F)CCN(C)CC1 (single isomer, unassigned) [V-21a]" testresult=68%
compound="Cc1ccc2c(c1)c1c(n2CC(O)c2ccc(C(N)=O)cc2)CCN(C)C1 (stereo not shown) [compound 139]" testresult=72%
compound="Cc1ccc2c(c1)c1c(n2CC(O)c2ccc(F)cc2)CCN2CCCC12 (single isomer, unassigned) [II-120b]" testresult=100%
compound="Cc1ccc(C(C)(O)Cn2c3c(c4cc(Cl)ccc42)CN(C)CC3)cn1 (single isomer, unassigned) [93a]" testresult=37%
compound="CC(O)(Cn1c2c(c3cc(Cl)ccc31)C1CCCN1CC2)c1cccnc1 (single isomer, unassigned) [II-130a]" testresult=92%
compound="Cc1cnc2c(c1)c1c(n2CC(N)c2ccc(C#N)cc2)CCNC1 (single isomer, unassigned) [160b]" testresult=65%

====

- testedTarget: rat adrenergic α1B receptor (Rattus norvegicus)
- Construct: rat adrenergic α1B receptor obtained from Wistar Rat liver; from tissue; host or cells: Wistar rat liver
- measurementNotes: Radioligand binding, adrenergic α1B ([3H]Prazosin)
- testParameters: read-out: Percentage inhibition of ligand binding, Adrenergic α1B (0.1 μM), compound at 0.1 μM; [3H]Prazosin; repeat datapoints each shown
outcomeMeasure: inhibition at 0.1 µM (%)

compound="Cc1ccc2c(c1)c1c(n2CC(O)c2ccncc2C)CCN(C)C1 (stereo not drawn) [133a]" unitstext=% testresult=57
compound="Cc1ccc2c(c1)c1c(n2CC(C)(O)c2cccnc2)CCN(C)CC1 (stereo not drawn) [II-135a]" unitstext=% testresult=48
compound="C/C(=C\\n1c2c(c3cc(C)ccc31)C1CCC(C2)N1C)c1ccc(Cl)cc1Cl (stereo not drawn)" unitstext=% testresult=27
compound="Cc1cnc2c(c1)c1c(n2CC(N)c2ccncc2)CCNC1 (stereo not drawn)" unitstext=% testresult=8
compound=CN1CCc2c(c3cc(Cl)ccc3n2CCc2ccc(F)cc2)C1 unitstext=% testresult=62
compound=Cc1ccc2c(c1)c1c(n2CCc2cncc(Cl)c2)CCN(C)CC1 unitstext=% testresult=77
compound="Cc1ccc2c(c1)c1c(n2CC(CO)c2ccncc2)CCN(C)C1 (stereo not drawn)" unitstext=% testresult=9
compound="CN1CCc2c(c3ccncc3n2CC(O)c2ccncc2)C1 (stereo not drawn)" unitstext=% testresult=4
compound="Cc1cnc2c(c1)c1c(n2CCc2ccc(C)nc2)CC2CCCN2C1 (stereo not drawn)" unitstext=% testresult=58

====

Parameter: Percentage inhibition of ligand binding, Adrenergic α1B. Scope: all listed entries.
- testedTarget: rat adrenergic α1B receptor (Rattus norvegicus)
- Construct: rat adrenergic α1B receptor obtained from Wistar Rat liver; from tissue; host or cells: Wistar rat liver
- Sequence (P15823 1-515): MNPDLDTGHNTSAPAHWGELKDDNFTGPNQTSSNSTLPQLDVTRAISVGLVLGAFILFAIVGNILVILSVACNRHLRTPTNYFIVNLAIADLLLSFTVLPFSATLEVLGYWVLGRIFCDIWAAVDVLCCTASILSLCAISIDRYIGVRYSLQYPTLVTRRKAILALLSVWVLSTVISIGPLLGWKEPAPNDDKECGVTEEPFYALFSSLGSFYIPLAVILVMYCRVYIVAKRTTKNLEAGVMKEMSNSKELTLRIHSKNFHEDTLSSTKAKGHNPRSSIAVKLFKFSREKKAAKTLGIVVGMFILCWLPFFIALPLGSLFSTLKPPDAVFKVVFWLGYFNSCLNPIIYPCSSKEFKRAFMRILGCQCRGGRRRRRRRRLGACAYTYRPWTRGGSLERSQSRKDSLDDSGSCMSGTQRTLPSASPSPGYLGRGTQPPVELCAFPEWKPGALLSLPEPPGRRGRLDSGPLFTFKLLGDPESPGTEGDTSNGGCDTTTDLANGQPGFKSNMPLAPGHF
- measurementNotes: Radioligand binding, adrenergic α1B ([3H]Prazosin)
- testParameters: 0.1 μM compound; 0.1 µM
outcomeMeasure: Percentage inhibition of ligand binding, Adrenergic α1B (%)

compound="Cc1cnc2c(c1)c1c(n2CC(C)(O)c2cccnc2)CCN(C)C1 (single isomer, unassigned) [II-99b]" testresult=5
compound="Cc1ccc2c(c1)c1c(n2CC(N)c2ccc(F)cc2)CCN(C)C1 (single isomer, unassigned) [II-11b]" testresult=76
compound="Cc1ccc2c(c1)c1c(n2CC(N)c2ccc(F)cc2)CCN(C)C1 (centres unmarked) [II-11]" testresult=63
compound="Cc1ccc2c(c1)c1c(n2CC(C)(c2cnccn2)N(C)C)CCN2CCCC12 (single isomer, unassigned) [II-6b]" testresult=91
compound="Cc1ccc2c(c1)c1c(n2CC(O)c2ccccc2F)CN(C)CC1 (single isomer, unassigned) [II-49a]" testresult=47
